Data origin, for the record: the RepoRT retention time repository (doi:10.1021/acs.analchem.2c02893)

# test protocol: RP, Waters ACQUITY UPLC BEH C18, 100 × 2.1 mm, 1.7 µm, 30 °C, 0.35 mL/min, estimated dead time 0.63 min; A: water + 0.01% formic acid + 5 mM ammonium formate, pH 3.71; B: acetonitrile + 0.01% formic acid, pH 3.71; gradient (min/%B) 0/10 3/10 22/100 30/100 30.1/10 40/10
# experimental conditions: stereoisomer not certain
Measured LC retention time accompanies every entry in the list below.
experimental readout: LC retention time (min)

CCNc1nc(Cl)nc(NC(C)C)n1 [Atrazine]    10.3
CCOP(=O)(OCC)OCC [Phosphate-triethyl]    7.31
CN1C(=O)CCC1c1cccnc1 (stereo unspecified) [Cotinine]    1.41
NCC(O)c1ccccc1 (stereo unspecified) [Apophedrin (Phenylethanolamine)]    1.38
CCC(C(N)=O)N1CCCC1=O (stereo unspecified) [Levetiracetam]    1.68
CNC(=O)ON=C(C)C(C)SC (stereo unspecified) [Butocarboxim]    7.64

====

# test protocol: RP, Thermo Scientific Acclaim RSLC 120 C18, 100 × 2.1 mm, 2.2 µm, 30 °C, 0.2 mL/min, estimated dead time 1.1 min; A: 90% water + 10% methanol + 0.01% formic acid + 5 mM ammonium formate, pH 3.61; B: methanol + 0.01% formic acid + 5 mM ammonium formate, pH 3.61; gradient (min/%B) 0/1 1/1 2/39 13/99.9 15/99.9 15.1/1 20.1/1
# experimental conditions: stereoisomer not certain
experimental readout: LC retention time (min)

CN(C)S(=O)(=O)N(SC(F)(Cl)Cl)c1ccccc1    10
CCCC(C)(COC(N)=O)COC(N)=O [Meprobamate]    5.94
COC(=O)C1=C(C)NC(C)=C(C(=O)OCCN(C)Cc2ccccc2)C1c1cccc([N+](=O)[O-])c1 (stereo unspecified)    8.39
CCCCCCCCCCCC[N+](C)(C)[O-] [N,N-Dimethyldodecylamine N-oxide]    11.2
NC1CCC(c2ccc(Cl)c(Cl)c2)c2ccccc21 (stereo unspecified)    9.02
CCCCOc1ccc(C(=O)OCCN(CC)CC)cc1    11.3
CCCCCn1cc(C(=O)Cc2ccccc2Cl)c2ccccc21    12.2
COC(=O)c1c(Cl)ccc(Cl)c1OC    9.64
CC(C)=CC1C(C(=O)OCN2C(=O)C3=C(CCCC3)C2=O)C1(C)C (stereo unspecified)    12.2
Nc1ncn[nH]1    1.44
CC(O)CCCn1cc(C(=O)c2cccc3ccccc23)c2ccccc21 (stereo unspecified)    10.1
CCCCCn1cc(C(=O)c2cccc3ccccc23)cc1-c1ccccc1F    12.8
CN1CCN2c3ncccc3Cc3ccccc3C2C1 (stereo unspecified)    5.29
CC1CCCCC1NC(=O)Nc1ccccc1 (stereo unspecified)    9.37
Cc1ccnc(NS(=O)(=O)c2ccc(N)cc2)n1    3.95
CC12C=CC3=C4CCC(=O)C=C4CCC3C1CCC2O (stereo unspecified)    8.89
CC=CC(=O)N(CC)c1ccccc1C    9.24
O=C(O)CCCOc1ccc(Cl)cc1Cl    10
Cc1onc(-c2c(Cl)cccc2Cl)c1C(=O)NC1C(=O)N2C1SC(C)(C)C2C(=O)O (stereo unspecified)    7.8
CC(C)(C)NCC(O)COc1cccc2c1SCCC2 (stereo unspecified)    6.76
CCCc1nn(C)c2c(=O)[nH]c(-c3cc(C(=O)CN4CCN(CCO)CC4)ccc3OCC)nc12 [Acetildenafil-Hydroxy]    6.94
COP(N)(=S)Oc1ccccc1C(=O)OC(C)C (stereo unspecified)    8.32
O=c1[nH]c2ccccc2n1CCCN1CCC(n2c(=O)[nH]c3cc(Cl)ccc32)CC1    6.27
CCOc1ccccc1C(N)=O [Ethenzamide]    5.68
Cc1ccc(C(=CCN2CCCC2)c2ccccn2)cc1    6.28
COc1cc(OC)nc(NC(=O)NS(=O)(=O)c2c(Cl)nc3ccccn23)n1    8.78
CCCc1nn(C)c2c(=S)nc(-c3cc(S(=O)(=O)N4CCN(C)CC4)ccc3OCC)[nH]c12    10.6
CC(C)(C)c1ccc(CCOc2ncnc3ccccc23)cc1    13.7
O=C1CN=C(c2ccccc2F)c2cc(Br)ccc2N1    8.7
CC12CCC3c4ccc(O)cc4CCC3C1CCC2O (stereo unspecified)    12
CNC(=C[N+](=O)[O-])NCCSCc1ccc(CN(C)C)o1    3.14

====

# test protocol: RP, Thermo Scientific Acclaim RSLC 120 C18, 100 × 2.1 mm, 2.2 µm, 30 °C, 0.2 mL/min, estimated dead time 1.1 min; A: 90% water + 10% methanol + 0.01% formic acid + 5 mM ammonium formate, pH 3.61; B: methanol + 0.01% formic acid + 5 mM ammonium formate, pH 3.61; gradient (min/%B) 0/1 1/1 2/39 13/99.9 15/99.9 15.1/1 20.1/1
# experimental conditions: stereoisomer not certain
Hi all, reminder that labels come from LC retention time, split as low (below 5 min), intermediate (5 min to below 8 min), high (8 min or more)

CCN1CC(CCN2CCOCC2)C(c2ccccc2)(c2ccccc2)C1=O (stereo unspecified) [Doxapram]    intermediate
COC(=O)c1c(Cl)c(Cl)c(C(=O)OC)c(Cl)c1Cl [Chlorthal-dimethyl (DCPA. Dacthal) (NH4)]    high
COc1cc(CC(C)N)c(OC)cc1Br (stereo unspecified) [DOB]    intermediate
COc1ccc(NS(=O)(=O)c2ccc(N)cc2)nn1 [Sulfamethoxypyridazine]    low
CNC(=N[N+](=O)[O-])NCC1CCOC1 (stereo unspecified) [Dinotefuran]    low
CCCCCCCCCCCCN(C)C [N,N-Dimethyldodecylamine]    high
CCc1c(C(=O)NCCc2ccc(N3CCCCC3)cc2)[nH]c2ccc(Cl)cc12    high
NCC(CC(=O)O)c1ccc(Cl)cc1 (stereo unspecified) [Baclofen]    low

====

# test protocol: RP, Thermo Scientific Acclaim RSLC 120 C18, 100 × 2.1 mm, 2.2 µm, 30 °C, 0.2 mL/min, estimated dead time 1.1 min; A: 90% water + 10% methanol + 0.01% formic acid + 5 mM ammonium formate, pH 3.61; B: methanol + 0.01% formic acid + 5 mM ammonium formate, pH 3.61; gradient (min/%B) 0/1 1/1 2/39 13/99.9 15/99.9 15.1/1 20.1/1
# experimental conditions: stereoisomer not certain
experimental readout: LC retention time

CC12C=CC(=O)C=C1CCC1C2C(=O)CC2(C)C1CCC2(O)C(=O)CO (centres undefined)    7.85 min
O=C(NC(=O)c1c(F)cccc1F)Nc1ccc(Cl)cc1    10.6 min
OCCOCCN1CCN(C2=Nc3ccc(O)cc3Sc3ccccc32)CC1 [Quetiapine-Hydroxy]    4.99 min
COC1(C)CC(c2ccccc2)c2c(c3ccccc3oc2=O)O1 (centres undefined)    11.1 min
C=C1CC2C(CCC3(C)C(=O)CCC23)C2(C)C=CC(=O)C=C12 (centres undefined)    9.03 min
CC(=O)Oc1cc(C(C)C)c(OCCN(C)C)cc1C    6.21 min
CCNc1nc(Cl)nc(N(CC)CC)n1    10.2 min
CC(C)NCC(O)c1ccc(NS(C)(=O)=O)cc1 (centres undefined)    2.96 min
CC(C)OC(=O)Nc1cccc(Cl)c1    9.78 min

====

# test protocol: RP, Thermo Scientific Acclaim RSLC 120 C18, 100 × 2.1 mm, 2.2 µm, 30 °C, 0.2 mL/min, estimated dead time 1.1 min; A: 90% water + 10% methanol + 0.01% formic acid + 5 mM ammonium formate, pH 3.61; B: methanol + 0.01% formic acid + 5 mM ammonium formate, pH 3.61; gradient (min/%B) 0/1 1/1 2/39 13/99.9 15/99.9 15.1/1 20.1/1
# experimental conditions: stereoisomer not certain
Measured LC retention time, listed per entry for reference.
experimental readout: LC retention time

CN(C)CCC=C1c2ccccc2CCc2ccccc21 [Amitriptyline]    8.23 min
Cc1cc(C)nc(Nc2ccccc2)n1 [Pyrimethanil]    9.44 min
CCOC(=O)CC(O)(CC(=O)OCC)C(=O)OCC [Triethylcitrate]    6.94 min
CNC(=O)Oc1cc(C)c(C)c(C)c1 [Trimethacarb (3.4.5-)]    8.1 min
Cc1cccc(CN2CCN(C(c3ccccc3)c3ccc(Cl)cc3)CC2)c1 (stereo not drawn) [Meclozine]    11.3 min
NC(=S)c1c(Cl)cccc1Cl [Chlorothiamide]    5.69 min
Cc1c(NC(C)C)c(=O)n(-c2ccccc2)n1C [Ramifenazone]    5.72 min
CCCCC(CC)COC(=O)C(C#N)=C(c1ccccc1)c1ccccc1 (stereo not drawn) [Octocrylene]    13.4 min
Nc1ccc2c(c1)C(c1ccccc1F)=NCC(=O)N2 [Flunitrazepam-7-Amino-desmethyl]    4.62 min
Cn1cc(-c2ccccc2)c(=O)c(-c2cccc(C(F)(F)F)c2)c1 [Fluridone]    8.82 min
CCCc1nn(C)c2c(=S)nc(-c3cc(S(=O)(=O)N4CCN(CC)CC4)ccc3OCC)[nH]c12 [Sildenafil Thiohomo]    10.6 min
CC(CN1c2ccccc2Sc2cccnc21)N(C)C (stereo not drawn) [Isothipendyl]    6.47 min
CC(C)OC(=O)C(O)(c1ccc(Br)cc1)c1ccc(Br)cc1 [Bromopropylate]    12.5 min
